target: Peptidyl-prolyl cis-trans isomerase FKBP1B (Homo sapiens); assay: Displacement of fluorescent tracer 5-(3-(4-((1S,5S,6S)-10-(3,5-dichlorophenylsulfonyl)-2-oxo-3-(pyridin-3-ylmethyl)-3,10-diazabicyclo[4.3.1]decan-5-yl)-1H-1,2,3-triazol-1-yl)propylcarbamoyl)-2-(6-(dimethylamino)-3-(dimethyliminio)-3H-xanthen-9-yl)benzoate from recombinant full length C-terminal FLAG-tagged FKBP12.6 (unknown origin) expressed in Escherichia coli BL21 (DE3) cells incubated for 30 mins by fluorescence polarisation competition assay
Metric name: Kd (nM)

COc1ccc(CC[C@H]2OC(=O)[C@@H]3CCCCN3C(=O)[C@@H](C3CCCCC3)c3cc(OC)c(c(OC)c3)OCCCCCOc3cccc2c3)cc1OC :: 849
COc1ccc(CC[C@H]2OC(=O)[C@@H]3CCCCN3C(=O)[C@@H](C3CCCCC3)c3cc(OC)c(c(OC)c3)OCCOc3cccc2c3)cc1OC :: 227

1. COc1ccc(CC[C@H]2OC(=O)[C@@H]3CCCCN3C(=O)[C@@H](C3CCCCC3)c3cc(OC)c(OC)c(c3)OCCC(=O)CCOc3cccc2c3)cc1OC
2. COc1ccc(CC[C@H]2OC(=O)[C@@H]3CCCCN3C(=O)[C@@H](C3CCCCC3)c3cc(OC)c(c(OC)c3)OCCCCOc3cccc2c3)cc1OC
3. COc1ccc(CC[C@H]2OC(=O)[C@@H]3CCCCN3C(=O)[C@@H](C3CCCCC3)c3cc(OC)c(c(OC)c3)OCCOC/C=C/COc3cccc2c3)cc1OC
4. COc1ccc(CC[C@H]2OC(=O)[C@@H]3CCCCN3C(=O)[C@@H](C3CCCCC3)c3cc(OC)c(OC)c(c3)OCCOc3cccc2c3)cc1OC
Order the 4 molecules from highest to lowest Kd. Order the labels as requested and give them as your answer.
3, 2, 4, 1

----------
target: Peptidyl-prolyl cis-trans isomerase FKBP1B (Homo sapiens); test: Displacement of fluorescent tracer 5-(3-(4-((1S,5S,6S)-10-(3,5-dichlorophenylsulfonyl)-2-oxo-3-(pyridin-3-ylmethyl)-3,10-diazabicyclo[4.3.1]decan-5-yl)-1H-1,2,3-triazol-1-yl)propylcarbamoyl)-2-(6-(dimethylamino)-3-(dimethyliminio)-3H-xanthen-9-yl)benzoate from recombinant full length C-terminal FLAG-tagged FKBP12.6 (unknown origin) expressed in Escherichia coli BL21 (DE3) cells incubated for 30 mins by fluorescence polarisation competition assay
Metric name: Kd (nM)

A. COc1ccc(CC[C@H]2OC(=O)[C@@H]3CCCCN3C(=O)[C@@H](C3CCCCC3)c3cc(OC)c(c(OC)c3)OCCCOC/C=C/COc3cccc2c3)cc1OC
B. COc1ccc(CC[C@H]2OC(=O)[C@@H]3CCCCN3C(=O)[C@@H](C3CCCCC3)c3cc(OC)c(OC)c(c3)OC[C@H](O)[C@@H](O)COc3cccc2c3)cc1OC
C. COc1ccc(CC[C@H]2OC(=O)[C@@H]3CCCCN3C(=O)[C@@H](C3CCCCC3)c3cc(OC)c(c(OC)c3)OC/C=C/COc3cccc2c3)cc1OC
# rank by Kd, ascending (min first) Respond with the label ranking, as requested.
B, A, C

----------
molecular target: Peptidyl-prolyl cis-trans isomerase FKBP4 (Homo sapiens, UniProt Q02790); test: Displacement of fluorescent tracer 5-(3-(4-((1S,5S,6S)-10-(3,5-dichlorophenylsulfonyl)-2-oxo-3-(pyridin-3-ylmethyl)-3,10-diazabicyclo[4.3.1]decan-5-yl)-1H-1,2,3-triazol-1-yl)propylcarbamoyl)-2-(6-(dimethylamino)-3-(dimethyliminio)-3H-xanthen-9-yl)benzoate from recombinant full length C-terminal FLAG-tagged FKBP52 (unknown origin) expressed in Escherichia coli BL21 (DE3) cells incubated for 30 mins by fluorescence polarisation competition binding assay
Sequence (Q02790 whole entry): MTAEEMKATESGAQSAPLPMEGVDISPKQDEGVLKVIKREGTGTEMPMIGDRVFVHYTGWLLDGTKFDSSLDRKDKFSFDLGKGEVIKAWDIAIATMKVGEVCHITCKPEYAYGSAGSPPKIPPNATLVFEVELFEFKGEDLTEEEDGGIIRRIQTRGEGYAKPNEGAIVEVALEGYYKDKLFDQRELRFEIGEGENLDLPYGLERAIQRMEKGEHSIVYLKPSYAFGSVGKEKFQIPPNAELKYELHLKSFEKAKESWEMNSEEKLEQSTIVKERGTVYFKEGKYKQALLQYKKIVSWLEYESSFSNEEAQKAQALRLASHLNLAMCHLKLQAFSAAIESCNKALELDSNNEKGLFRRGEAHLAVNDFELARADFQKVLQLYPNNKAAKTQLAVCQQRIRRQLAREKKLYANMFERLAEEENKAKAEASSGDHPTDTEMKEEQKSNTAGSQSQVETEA
pKd: −log10 of the molar value.
Metric name: pKd

COc1ccc(CC[C@H]2OC(=O)[C@@H]3CCCCN3C(=O)[C@@H](C3CCCCC3)c3cc(OC)c(OC)c(c3)OCCOCCCCOc3cccc2c3)cc1OC :: < 5.00
COc1ccc(CC[C@H]2OC(=O)[C@@H]3CCCCN3C(=O)[C@@H](C3CCCCC3)c3cc(OC)c(c(OC)c3)OCCCOC/C=C/COc3cccc2c3)cc1OC :: < 5.00
COc1ccc(CC[C@H]2OC(=O)[C@@H]3CCCCN3C(=O)[C@@H](C3CCCCC3)c3cc(OC)c(OC)c(c3)OCCC(=O)CCOc3cccc2c3)cc1OC :: 5.85
COc1ccc(CC[C@H]2OC(=O)[C@@H]3CCCCN3C(=O)[C@@H](C3CCCCC3)c3cc(OC)c(c(OC)c3)OCCOC/C=C/COc3cccc2c3)cc1OC :: < 5.00
COc1ccc(CC[C@H]2OC(=O)[C@@H]3CCCCN3C(=O)[C@@H](C3CCCCC3)c3cc(OC)c(OC)c(c3)OCCOC/C=C/COc3cccc2c3)cc1OC :: < 5.00

Turning to the following compound.
// pKd lookup, key: `COc1ccc(CC[C@H]2OC(=O)[C@@H]3CCCCN3C(=O)[C@@H](C3CCCCC3)c3cc(OC)c(c(OC)c3)OCC/C=C/COc3cccc2c3)cc1OC`
< 5.00
